System: HEK-293T
Assay: Multiplex assay against HEK293T
Format: toxicity, cell-based
Conditions: human, 12 h, 10 µM, compound concentration 10 uM, replicate 2
Reported Population Membrane Permeable-Phenotype (%) values are given for each entry in this list.
# number only, unit % dropped from output

Consider the following illustrative entries.
compound	reported.value
COc1cccc([C@@H](C)NCCCc2ccccc2Cl)c1.Cl [TECALCET HYDROCHLORIDE]	4
CN1CCN(CCOc2cc(OC3CCOCC3)c3c(Nc4c(Cl)ccc5c4OCO5)ncnc3c2)CC1 [SARACATINIB]	2
CN1CCN(c2ccc(OC(F)(F)F)c(Nc3ncc4c(n3)-c3c(c(C(N)=O)nn3CCO)CC4)c2)CC1 [ONVANSERTIB]	1

Task item: Find the recorded Population Membrane Permeable-Phenotype (%) belonging to C=CC(=O)Nc1cc2c(Nc3ccc(F)c(Cl)c3)ncnc2cc1OCCCN1CCOCC1.Cl.Cl [CANERTINIB DIHYDROCHLORIDE] and report it.
Reply: 2

Task item: Which value of Population Membrane Permeable-Phenotype (%) has been reported for CN1CCCC(n2nc(Cc3ccc(Cl)cc3)c3ccccc3c2=O)CC1.Cl (stereo unspecified) [AZELASTINE HYDROCHLORIDE] in the records?
Reply: 3

Task item: Which Population Membrane Permeable-Phenotype (%) value belongs to CN1CCC[C@@H]1CCO[C@](C)(c1ccccc1)c1ccc(Cl)cc1.O=C(O)/C=C/C(=O)O [CLEMASTINE FUMARATE] ?
Reply: 4

Task item: I am curious: what Population Membrane Permeable-Phenotype (%) value has been reported for CN(C)C(=O)N[C@H]1CC[C@H](CCN2CCN(c3cccc(Cl)c3Cl)CC2)CC1.Cl [CARIPRAZINE HYDROCHLORIDE] ?
Reply: 6

Task item: What value of Population Membrane Permeable-Phenotype (%) has been recorded for this entry: CC[C@H](C)C(=O)O[C@H]1C[C@@H](C)C=C2C=C[C@H](C)[C@H](CC[C@@H]3C[C@@H](O)CC(=O)O3)[C@H]21 [LOVASTATIN]
Reply: 4

Task item: Entry Cn1c(-c2csc(C3CCN(CC4=NC5N=CC=CC5N4)CC3)n2)nc2ccccc21 (stereo unspecified) [BAY-070] : reported Population Membrane Permeable-Phenotype (%) = ?
Reply: 1

Task item: Can you share its Population Membrane Permeable-Phenotype (%)? I mean this compound: Cc1sc2c(c1C)C(c1ccc(Cl)cc1)=N[C@@H](CC(=O)OC(C)(C)C)c1nnc(C)n1-2
Reply: 0

Task item: Fill in: Population Membrane Permeable-Phenotype (%) of Cc1nc(-c2ccc(-c3ccc(C(=O)N4CCc5cc6c(cc54)C4(CCN(C)CC4)CO6)cc3)c(C)c2)no1 [SB-224289] is ___
Reply: 4

Task item: Query (compound): Cc1nc(Nc2n[nH]c3c2CN(C(=O)N[C@H](CN(C)C)c2ccccc2)C3(C)C)c2sccc2n1 [PF-03758309] ; field requested: Population Membrane Permeable-Phenotype (%)
Reply: 10

Value source: ChEMBL document CHEMBL4689842
